test system: Mycobacterium tuberculosis; assay: Antimycobacterial activity against Mycobacterium tuberculosis H37Rv at 6.25 ug/ml; format: functional
Item-by-item account of -log(inh/100-inh)

c1cc2c(N3CCCCC3)cc(N3CCOCC3)nc2nc1N1CCCCC1 -0.1224

// below: -log(inh/100-inh) requested for another compound
Item "Nc1ccc2c(Cl)cc(N3CCCCC3)nc2n1" with Mycobacterium tuberculosis - -log(inh/100-inh)?
-0.2126

###

test system: Mycobacterium tuberculosis; test: Antimycobacterial activity against Mycobacterium tuberculosis H37Rv at 6.25 ug/ml; assay type: functional
Please map values of -log(inh/100-inh) to classes as shown: low: < -0.2; moderate: ≥ -0.2 and < 0.4; high: ≥ 0.4

Clc1ccc2c(-c3ccccc3)cc(N3CCOCC3)nc2n1 low

Hi there! Could you help me figure out the category for "Cc1ccc2c(Cl)c(Cc3ccccc3)c(C)nc2n1" please?
moderate

Sort "Clc1ccc2c(-c3ccccc3)cc(CCN3CCNCC3)nc2n1" into one of the categories.
moderate

Field: class (-log(inh/100-inh)) — entry: "c1ccc(-c2cc3ccc(N4CCCCC4)nc3nc2N2CCNCC2)cc1"
high

// return the class label for "c1ccc(-c2cc(CCN3CCNCC3)nc3nc(CCN4CCNCC4)ccc23)cc1"
high

###

system: Mycobacterium tuberculosis; test: Antimycobacterial activity against Mycobacterium tuberculosis H37Rv at 6.25 ug/ml; assay type: functional
# reported -log(inh/100-inh); entries follow
Please respond with just the number, no unit label.

Clc1ccc(-c2ccc3c(-c4ccccc4)cc(-c4ccc(N5CCNCC5)cc4)nc3n2)cc1 0.0871
Clc1ccc2c(N3CCCCC3)cc(N3CCOCC3)nc2n1 -1.0607
c1ccc(-c2cc3ccc(N4CCOCC4)nc3nc2N2CCCCC2)cc1 0.6886

Query (compound): "c1ccc(-c2cc3ccc(N4CCNCC4)nc3nc2N2CCCCC2)cc1" ; field requested: -log(inh/100-inh)
0.908

May I ask what -log(inh/100-inh) has been recorded for "CCOC(=O)N1CCN(c2ccc3cc(-c4ccccc4)c(N4CCCCC4)nc3n2)CC1" ?
1.0048

Which -log(inh/100-inh) is reported for this compound? "c1ccc(-c2cc(N3CCCCC3)nc3nc(N4CCCCC4)ccc23)cc1"
1.9956

Fill in the blank: the reported -log(inh/100-inh) of "Oc1ccc2c(-c3ccccc3)cc(CCN3CCNCC3)nc2n1" is ____.
-0.3889

# lookup: -log(inh/100-inh) of "CCOC(=O)N1CCN(c2nc3nc(N4CCOCC4)ccc3cc2-c2ccccc2)CC1"
0.2499

Name the reported -log(inh/100-inh) value associated with the compound "Oc1ccc2c(Cl)cc(N3CCOCC3)nc2n1"
-1.6902

Any idea what its -log(inh/100-inh) is? The compound is "Cc1ccc2c(Cl)c(Cc3ccccc3)c(N3CCCCC3)nc2n1"
-0.1581

Which -log(inh/100-inh) reading was recorded for the compound "Oc1ccc(-c2ccc3c(-c4ccccc4)cc(-c4ccc(N5CCNCC5)cc4)nc3n2)cc1" ?
-0.3274

Data request, read-out -log(inh/100-inh), for "Cc1ccc2c(Cl)c(C)c(Cl)nc2n1"
-1.9956

Look up -log(inh/100-inh): "Nc1ccc(-c2ccc3ccc(-c4ccc(N5CCNCC5)cc4)nc3n2)cc1"
1.195

For the compound shown here, "Oc1cc(-c2ccccc2)c2ccc(N3CCNCC3)nc2n1" , give the reported -log(inh/100-inh).
-0.908

-log(inh/100-inh) lookup needed for "Cc1ccc2c(N3CCOCC3)c(C)c(N3CCCCC3)nc2n1" , thanks.
-0.908

Quick check: -log(inh/100-inh) of "Nc1ccc2c(-c3ccccc3)cc(N3CCOCC3)nc2n1" ?
-0.0522

Using the record for "Nc1ccc2c(-c3ccccc3)cc(CCN3CCNCC3)nc2n1" , report its -log(inh/100-inh).
0.3475

Would you kindly share the measured -log(inh/100-inh) for "Nc1cc2cc(-c3ccccc3)c(N3CCCCC3)nc2nc1N1CCCCC1" ?
0.3889

Data request, read-out -log(inh/100-inh), for "COc1ccc(-c2ccc3ccc(-c4ccc(N5CCNCC5)cc4)nc3n2)cc1"
0.7884

Endpoint output: -log(inh/100-inh) of "CCOC(=O)N1CCN(c2ccc3cc(-c4ccccc4)c(N4CCN(C(=O)OCC)CC4)nc3n2)CC1" . Value?
-0.0348

# -log(inh/100-inh) lookup, item "CCOC(=O)N1CCN(c2cc(-c3ccccc3)c3ccc(N4CCNCC4)nc3n2)CC1"
1.0607

Please look up its -log(inh/100-inh): "COc1ccc2c(-c3ccccc3)cc(N3CCOCC3)nc2n1"
-0.2689

###

test system: Mycobacterium tuberculosis; assay: Antimycobacterial activity against Mycobacterium tuberculosis H37Rv at 6.25 ug/ml; type: functional
// assign Yes if -log(inh/100-inh) falls strictly below 0.3, else No (ties count as No)

Example entries and their recorded answers appear below.
c1cc(N2CCNCC2)ccc1-c1ccc2ccc(-c3ccc(N4CCNCC4)cc3)nc2n1 Yes
COc1ccc2c(-c3ccccc3)cc(N3CCCCC3)nc2n1 No
Oc1ccc2c(N3CCOCC3)cc(N3CCOCC3)nc2n1 Yes
O=[N+]([O-])c1cc2cc(-c3ccccc3)c(N3CCCCC3)nc2nc1N1CCCCC1 No

# TODO verify -log(inh/100-inh) < 0.3 strictly for this compound: "Nc1ccc2c(N3CCCCC3)cc(N3CCOCC3)nc2n1"
Yes

Quick check: does "Cc1ccc2c(Cl)c(Cc3ccccc3)c(N3CCOCC3)nc2n1" have -log(inh/100-inh) under 0.3?
Yes

Dear colleague, could you confirm whether -log(inh/100-inh) of "CC(=O)Nc1ccc2c(Cl)cc(N3CCCCC3)nc2n1" falls below 0.3? Thanks.
Yes

Quick check: -log(inh/100-inh) of "Clc1ccc2c(-c3ccccc3)cc(N3CCCCC3)nc2n1" under 0.3?
No

###

system: Mycobacterium tuberculosis; test: Antimycobacterial activity against Mycobacterium tuberculosis H37Rv at 6.25 ug/ml; type: functional
Lab note: anything with -log(inh/100-inh) below 0.2 is marked T; values at 0.2 or higher are marked F.

Nc1ccc2c(N3CCCCC3)cc(N3CCNCC3)nc2n1 F
c1ccc(-c2cc3ccc(N4CCCCC4)nc3nc2N2CCCCC2)cc1 F
Nc1ccc2cc(-c3ccccc3)c(N3CCCCC3)nc2n1 T
c1cc2c(N3CCOCC3)cc(N3CCOCC3)nc2nc1N1CCOCC1 T
Clc1cc(N2CCOCC2)nc2nc(N3CCCCC3)ccc12 T

# next molecule below
Quick check: -log(inh/100-inh) of "O=C(CCc1ccc2c(-c3ccccc3)cc(O)nc2n1)OCCN1CCNCC1" under 0.2?
T

###

Quick list: -log(inh/100-inh) per entry.
system: Mycobacterium tuberculosis; test: Antimycobacterial activity against Mycobacterium tuberculosis H37Rv at 6.25 ug/ml; format: functional

COC(=O)N1CCN(c2nc3nc(OC)ccc3cc2-c2ccccc2)CC1 -0.1224
Clc1ccc2c(Cl)cc(N3CCOCC3)nc2n1 -0.2126
Cc1ccc2c(Cl)c(C)c(N3CCCCC3)nc2n1 -0.6886
Cc1ccc2c(N3CCCCC3)c(Cc3ccccc3)c(N3CCCCC3)nc2n1 1.3802
c1cc2c(N3CCCCC3)cc(N3CCOCC3)nc2nc1N1CCOCC1 -0.908
Clc1ccc2c(N3CCOCC3)cc(N3CCOCC3)nc2n1 -1.9956
COc1ccc2c(-c3ccccc3)cc(CCN3CCNCC3)nc2n1 0.4102
Nc1ccc2c(-c3ccccc3)cc(N3CCCCC3)nc2n1 1.0048

State the recorded -log(inh/100-inh) for this entry: "Cc1ccc2c(N3CCOCC3)c(Cc3ccccc3)c(N3CCCCC3)nc2n1"
-0.6021

What value of -log(inh/100-inh) has been recorded for this entry: "c1ccc(-c2cc3ccc(N4CCNCC4)nc3nc2N2CCNCC2)cc1"
0.432

GET /values?readout=-log(inh/100-inh)&item= "COc1ccc2cc(-c3ccccc3)c(N3CCNCC3)nc2n1"
0.3076
